Numbers sourced from the kinase profiling compilation of Christmann-Franck et al. (2016).

Target: RPS6KB1 (human) (UniProt P23443)
Sequence (P23443 whole entry, looked up): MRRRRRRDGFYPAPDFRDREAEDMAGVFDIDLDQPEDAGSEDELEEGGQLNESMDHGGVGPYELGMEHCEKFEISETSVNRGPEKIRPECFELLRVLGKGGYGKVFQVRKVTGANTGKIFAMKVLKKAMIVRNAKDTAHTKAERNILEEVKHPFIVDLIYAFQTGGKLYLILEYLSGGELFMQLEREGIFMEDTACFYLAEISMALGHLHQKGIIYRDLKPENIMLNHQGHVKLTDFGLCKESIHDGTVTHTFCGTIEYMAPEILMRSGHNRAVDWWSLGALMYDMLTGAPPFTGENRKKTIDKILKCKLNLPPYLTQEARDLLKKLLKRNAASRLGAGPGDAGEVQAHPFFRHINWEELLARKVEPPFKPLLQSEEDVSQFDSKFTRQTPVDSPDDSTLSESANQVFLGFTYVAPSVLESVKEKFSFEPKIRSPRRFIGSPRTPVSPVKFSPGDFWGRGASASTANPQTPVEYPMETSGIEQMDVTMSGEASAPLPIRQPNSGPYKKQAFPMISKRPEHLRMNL
Assay: KINOMEscan competition binding
Conditions: compound 10.0 µM
VALUE_KIND: kinase still bound, per cent of control (%)

INSERT INTO assay_data (molecule, target_system, recorded_result) VALUES
  ('CCCS(=O)(=O)Nc1ccc(F)c(C(=O)c2c[nH]c3ncc(Cl)cc23)c1F', 'RPS6KB1 (human) (UniProt P23443)', 58),
  ('CCc1nc(-c2cccc(C)c2)c(-c2ccnc(NC(=O)c3ccccc3)c2)s1', 'RPS6KB1 (human) (UniProt P23443)', 90),
  ('C=CC(=O)Nc1ccc(C(=O)c2sc(Nc3ccc(N4CCN(C)CC4)cc3OC)nc2N)cc1', 'RPS6KB1 (human) (UniProt P23443)', 100),
  ('N#C/C(=C1/Nc2ccccc2S1)c1ccnc(NCCc2cccnc2)n1', 'RPS6KB1 (human) (UniProt P23443)', 41),
  ('O=c1[nH]c2ccccc2n1C1CCN(Cc2ccc(-c3nc4cc5[nH]cnc5cc4nc3-c3ccccc3)cc2)CC1', 'RPS6KB1 (human) (UniProt P23443)', 84),
  ('COc1cc2ncnc(Nc3cccc(Cl)c3)c2cc1OC', 'RPS6KB1 (human) (UniProt P23443)', 63),
  ('CC1=C(C(=O)Nc2cc3cn[nH]c3cc2F)C(c2ccc(C(F)(F)F)cc2)CC(=O)N1 (centres undefined)', 'RPS6KB1 (human) (UniProt P23443)', 50),
  ('CNC(=O)Nc1ccc(-c2nc(N3CC4CCC(C3)O4)c3cnn(C4CCC5(CC4)OCCO5)c3n2)cc1', 'RPS6KB1 (human) (UniProt P23443)', 100),
  ('COc1cc2c(Nc3ccc(NC(=O)c4ccccc4)cc3)ncnc2cc1OCCCN1CCOCC1', 'RPS6KB1 (human) (UniProt P23443)', 7.4);
